- Tested on: formyl peptide receptor family (Hs_FPR1, Hs_FPR2, Mm_Fpr1, Mm_Fpr2)
- Procedure summary: Summary of main findings: receptor subtype selectivity and ligand bias across all readouts
- Design: species or system human and mouse
- Condition details: summary of main findings, in words
Value kind: Notes

CC(C)c1c(NC(=O)Nc2ccc(Cl)cc2)c(=O)n(-c2ccccc2)n1C: Partial/weak only
CCCCOc1ccc(C(=O)NN2C(=O)c3ccccc3NC2c2ccc(OC)cc2)cc1 (stereo not shown): Partial/weak only

====

Please provide measured Emax for the entries that follow.
- Tested system: Hs_FPR2 (Homo sapiens, UniProt P25090)
- Construct: expressed in transfected cells
- Sequence (P25090 whole entry): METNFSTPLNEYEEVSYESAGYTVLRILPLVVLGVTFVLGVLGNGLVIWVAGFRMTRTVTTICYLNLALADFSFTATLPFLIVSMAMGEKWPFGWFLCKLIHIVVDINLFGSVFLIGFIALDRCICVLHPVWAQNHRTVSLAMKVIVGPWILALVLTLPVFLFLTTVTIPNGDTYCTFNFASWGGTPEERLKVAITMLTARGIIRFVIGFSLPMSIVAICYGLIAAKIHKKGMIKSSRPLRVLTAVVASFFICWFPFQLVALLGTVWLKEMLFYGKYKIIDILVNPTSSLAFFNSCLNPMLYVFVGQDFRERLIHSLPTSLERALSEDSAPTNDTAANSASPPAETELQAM
- Procedure summary: BRET receptor-RLuc8 interaction with Venus-mGsi
- Format: cell-based
Where a SMILES comes first, the peptide text is derived from it. The star is where a group is joined. For = O=C*
Answer by giving the amount and then stating its unit.

CSCC[C@H](NC(=O)[C@@H](NC(=O)[C@H](CCSC)NC(=O)[C@H](Cc1ccc(O)cc1)NC(=O)[C@H](CCCCN)NC(=O)[C@@H](N)Cc1c[nH]c2ccccc12)C(C)C)C(N)=O: 79.2%

Observed Emax on Hs_FPR2 (Homo sapiens, UniProt P25090), entry CC[C@H](C)[C@H](NC(=O)[C@H](CC(C)C)NC(=O)[C@H](CCCCN)NC(=O)[C@H](CCSC)NC(=O)[C@H](CC(C)C)NC(=O)[C@@H]1CCCN1C(=O)[C@H](CC(N)=O)NC(=O)[C@@H](NC(=O)[C@H](CCCCN)NC(=O)[C@H](CCCNC(=N)N)NC(=O)[C@H](CCSC)NC(=O)[C@@H]1CCCN1C(=O)[C@@H](NC(=O)[C@H](CCSC)NC=O)[C@@H](C)O)[C@@H](C)CC)C(=O)N[C@@H](CC(N)=O)C(=O)O [MCT-2, Formyl-MTPMRKINPLMKLIN] (For-MTPMRKINPLMKLIN-OH) , equals 44.4%
